Test: self-splicing fitness, log relative to wild type (ln ratio); higher = more splicing; Tetrahymena group I intron in knt gene, E. coli kanamycin selection, DiMSum; sequences stand for … in CUCUCU…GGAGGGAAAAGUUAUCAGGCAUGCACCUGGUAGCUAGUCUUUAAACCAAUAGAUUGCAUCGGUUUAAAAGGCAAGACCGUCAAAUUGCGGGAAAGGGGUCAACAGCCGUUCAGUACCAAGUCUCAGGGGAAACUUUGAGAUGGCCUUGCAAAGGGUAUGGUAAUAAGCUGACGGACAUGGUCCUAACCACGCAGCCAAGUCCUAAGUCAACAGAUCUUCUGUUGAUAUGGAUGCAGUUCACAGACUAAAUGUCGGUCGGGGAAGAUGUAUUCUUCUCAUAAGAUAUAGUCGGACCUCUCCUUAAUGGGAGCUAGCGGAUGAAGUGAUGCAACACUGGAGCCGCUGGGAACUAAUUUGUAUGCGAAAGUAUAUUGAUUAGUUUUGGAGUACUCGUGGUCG;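 also: selection with 25 µg/mL kanamycin versus none on LB agar overnight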
Condition Parameters: 37 °C

Residues	self-splicing fitness (ln)
AAAGAGCAAUAUUACGUCAU	-2.45
UAUCAGCAAUAUUACGCAGC	-1.53
AGUUAGCAAUAUUACGUAAA	-1.4
CACAAGCAAUAUUACGGCAG	-0.0731
UUGCAGCAAUAUUACGGAUC	-2.93
CAGGAGCAAUAUUACGAUUU	-0.961
CAGAAGCAAUAUUACGAAAG	-0.392
ACACAGCAAUAUUACGAUGU	-1.18
AAGAAGCAAUAUUACGGAAC	-2.58
AGUGAGCAAUAUUACGUGAU	-2.74
GCUUAGCAAUAUUACGCGUC	-0.88
UGGGAGCAAUAUUACGGCGG	-1.23
UGACAGCAAUAUUACGGUAG	-0.41
UCGAAGCAAUAUUACGUAGU	-0.666
GGAGAGCAAUAUUACGUUGA	-1.97
UAGUAGCAAUAUUACGCAGA	-2.99

* * *

Test: self-splicing fitness, log relative to wild type (ln ratio); higher = more splicing; Tetrahymena group I intron in knt gene, E. coli kanamycin selection, DiMSum; sequences stand for … in CUCUCU…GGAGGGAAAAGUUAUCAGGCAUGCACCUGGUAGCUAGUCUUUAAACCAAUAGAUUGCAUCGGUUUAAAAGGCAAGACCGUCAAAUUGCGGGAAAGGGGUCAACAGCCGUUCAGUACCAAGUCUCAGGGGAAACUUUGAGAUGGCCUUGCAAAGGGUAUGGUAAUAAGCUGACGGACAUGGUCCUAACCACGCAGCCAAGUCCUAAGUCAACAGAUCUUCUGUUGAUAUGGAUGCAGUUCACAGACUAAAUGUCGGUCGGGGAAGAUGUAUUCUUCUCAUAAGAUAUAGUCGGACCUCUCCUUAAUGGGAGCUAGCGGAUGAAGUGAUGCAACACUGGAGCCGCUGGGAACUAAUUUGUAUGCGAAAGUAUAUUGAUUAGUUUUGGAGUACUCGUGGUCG
Condition Parameters: 30 °C
# self-splicing fitness (ln) per entry
Measurement Label: self-splicing fitness (ln)

Residues	Test Result
UAAGAGCAAUAUUACGUAAU	-3.14
UUAAAGCAAUAUUACGCGGU	-3.37
AGGCAGCAAUAUUACGUGCU	-2.46
AGCAAGCAAUAUUACGCCGA	-0.81
UAUCAGCAAUAUUACGAGGG	-2.76
UAGCAGCAAUAUUACGCGAC	-3.54
AGCUAGCAAUAUUACGUGCA	-0.188
AUACAGCAAUAUUACGCGCC	-1.06
ACAGAGCAAUAUUACGCGUG	-1.81
AGCCAGCAAUAUUACGUGUU	-3.62
UUAGAGCAAUAUUACGUGGU	-3.98
UGCUAGCAAUAUUACGCAAC	-3.07
GGGCAGCAAUAUUACGAAAG	-3.58
UUGCAGCAAUAUUACGGUAC	-3.25
AGGCAGCAAUAUUACGGAUC	-2.19
UAAGAGCAAUAUUACGUCGA	-3.95
AGCAAGCAAUAUUACGAAUC	-4.48
CCAUAGCAAUAUUACGGCAA	-3.37
UAUGAGCAAUAUUACGAAAG	-2.55
ACGGAGCAAUAUUACGGAAG	-4.44
CCUGAGCAAUAUUACGUUGA	-3.7
ACGAAGCAAUAUUACGGUGG	-3.93
UAUAAGCAAUAUUACGGCGA	-0.0284
GCAUAGCAAUAUUACGGUUU	-1.62
CACUAGCAAUAUUACGCGGA	-3.19
CGGAAGCAAUAUUACGGCGC	-1.89
CCUAAGCAAUAUUACGAUGG	-2.4
GCUAAGCAAUAUUACGCACU	-0.54
AAGCAGCAAUAUUACGGUAG	-3.38
UAAGAGCAAUAUUACGGGGU	-2.67
AAAAAGCAAUAUUACGUACC	-0.981
CACGAGCAAUAUUACGAAAU	-2.18
ACCUAGCAAUAUUACGUCAC	-4.1
AUCAAGCAAUAUUACGGCGU	0.235
ACAAAGCAAUAUUACGGCUA	-0.14
UCCUAGCAAUAUUACGCCAC	-1.72
UCGAAGCAAUAUUACGGGUC	-4.14
UUAUAGCAAUAUUACGGUCC	-2.8
AUGCAGCAAUAUUACGACAU	-0.23
GGAAAGCAAUAUUACGAAUC	-1.73
CAUCAGCAAUAUUACGCACU	-1.99
AAUAAGCAAUAUUACGGGUC	-3.18
CCGAAGCAAUAUUACGUUGU	-4.15
CGGUAGCAAUAUUACGCGUG	-2.11
GAUUAGCAAUAUUACGGUAA	-1.83
GGGAAGCAAUAUUACGGCGA	-0.443
CUGCAGCAAUAUUACGACGG	-2.75
ACGGAGCAAUAUUACGCUCG	-1.67
GUCGAGCAAUAUUACGCACA	-1.76
UGCAAGCAAUAUUACGGUAA	-1.08
ACCCAGCAAUAUUACGACGA	-0.509
CAGGAGCAAUAUUACGCAUG	-3.78
AGCGAGCAAUAUUACGACAA	-3.33
GCCUAGCAAUAUUACGCCUC	0.149
AUAAAGCAAUAUUACGCUGC	-3.15
UAAUAGCAAUAUUACGGACA	-1.12
ACCGAGCAAUAUUACGGUAC	-2.82
CGGAAGCAAUAUUACGGUCG	-1.55
AAUGAGCAAUAUUACGGCGU	-1.43
AGACAGCAAUAUUACGUGUU	-3.8
ACAUAGCAAUAUUACGUAUA	-3.09
AGCCAGCAAUAUUACGUGGA	-3.81
GGGAAGCAAUAUUACGUGUC	-3.63
GAGCAGCAAUAUUACGGGAG	-3.68
CCAAAGCAAUAUUACGUUAU	-3.2
CUGGAGCAAUAUUACGCAGG	-3.11
AGCUAGCAAUAUUACGGUUA	-0.191

Attribution: the supplement of paper PMC7877785
